B1: VH:VL chains; a variant is named by its letters at X, in order (parent)
chain 1: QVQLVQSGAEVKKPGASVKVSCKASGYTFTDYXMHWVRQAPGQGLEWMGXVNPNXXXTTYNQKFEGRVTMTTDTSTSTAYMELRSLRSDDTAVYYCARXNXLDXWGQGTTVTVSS
chain 2: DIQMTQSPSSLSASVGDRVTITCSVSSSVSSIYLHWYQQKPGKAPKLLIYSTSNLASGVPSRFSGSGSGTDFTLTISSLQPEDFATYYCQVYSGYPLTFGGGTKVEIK

Variants of: B1
runDescription: yeast display scFab, FACS + sequencing
readoutName: non-specific binding call

YRKRGAVD :: binds
YRRRGFGV :: binds
DARRGAGV :: no binding
VKARGSAF :: binds
FAGGGAGA :: no binding
VRAGADWY :: no binding

Would you kindly look at the next entry?
Looking for the measured non-specific binding call of VETTDSWV , can you help?
no binding
